- study system: UniProtKB P07374
- Sequence (P07374 whole entry): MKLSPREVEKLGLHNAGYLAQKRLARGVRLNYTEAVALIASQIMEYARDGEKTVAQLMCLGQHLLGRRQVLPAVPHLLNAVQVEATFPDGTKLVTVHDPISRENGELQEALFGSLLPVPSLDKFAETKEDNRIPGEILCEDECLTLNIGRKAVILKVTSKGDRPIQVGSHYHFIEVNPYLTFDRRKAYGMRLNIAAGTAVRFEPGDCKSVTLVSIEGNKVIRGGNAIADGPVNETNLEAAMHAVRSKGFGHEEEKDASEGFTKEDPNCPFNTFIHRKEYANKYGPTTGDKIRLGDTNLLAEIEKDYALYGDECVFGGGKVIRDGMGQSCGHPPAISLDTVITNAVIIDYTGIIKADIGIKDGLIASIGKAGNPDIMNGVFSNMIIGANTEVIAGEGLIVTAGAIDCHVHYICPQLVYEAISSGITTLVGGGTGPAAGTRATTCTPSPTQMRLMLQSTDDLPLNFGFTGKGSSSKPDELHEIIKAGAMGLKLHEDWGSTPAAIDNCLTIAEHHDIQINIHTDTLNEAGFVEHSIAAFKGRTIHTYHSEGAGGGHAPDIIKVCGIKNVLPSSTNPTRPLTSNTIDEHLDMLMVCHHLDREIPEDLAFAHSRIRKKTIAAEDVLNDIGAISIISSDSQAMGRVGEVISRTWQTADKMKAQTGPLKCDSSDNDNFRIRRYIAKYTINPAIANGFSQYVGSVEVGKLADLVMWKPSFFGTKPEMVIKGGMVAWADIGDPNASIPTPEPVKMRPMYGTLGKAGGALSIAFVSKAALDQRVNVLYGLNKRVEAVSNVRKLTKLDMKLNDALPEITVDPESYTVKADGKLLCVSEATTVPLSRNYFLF
- method notes: Inhibition of jack bean urease assessed as reduction in ammonia production incubated at 30 degC for 15 mins by indophenol method
Starred links: 1 amine or outer side, 2 acyl side, 3 side chain; linkers in the order of their positions; H or OH if unused. Residues, ends and D or L forms follow the SMILES beside them. *: point of attachment. X1 = c1ccc2c(N3CCN(*)CC3)nsc2c1; NH(4-F-phenyl) = Fc1ccc(N*)cc1; X2 = Fc1ccc(NC(=S)*)cc1; X5 = COc1ccccc1NC(=S)*; Boc = CC(C)(C)OC(=O)*; CO = O=C([*:1])[*:2]; X6 = Fc1cccc(N*)c1
Exam item: assign y to entries whose IC50 is below 40 µM and n to entries at or above 40 µM. Note that a value of exactly 40 µM receives n.

q: Quick check: IC50 of CC(C)[C@H](NC(=O)CNC(=O)[C@H](Cc1ccccc1)NC(=O)CNC(=O)Nc1cccc(F)c1)C(=O)N1CCC[C@H]1C(=O)N1CCN(c2nsc3ccccc23)CC1 ({X6-CO}-GFGVP-X1) under 40 µM?
a: n

q: Quick check: IC50 of CC(C)[C@H](NC(=O)CNC(=O)[C@H](Cc1ccccc1)NC(=O)CNC(=O)Nc1ccc(F)cc1)C(=O)N1CCC[C@H]1C(=O)N1CCN(c2nsc3ccccc23)CC1 ({NH(4-F-phenyl)-CO}-GFGVP-X1) under 40 µM?
a: y

q: Quick check: IC50 of CC(C)[C@H](NC(=O)CNC(=O)[C@H](Cc1ccccc1)NC(=O)CNC(=O)OC(C)(C)C)C(=O)N1CCC[C@H]1C(=O)N1CCN(c2nsc3ccccc23)CC1 (Boc-GFGVP-X1) under 40 µM?
a: n

q: Quick check: IC50 of COc1ccccc1NC(=S)NCC(=O)N[C@@H](Cc1ccccc1)C(=O)NCC(=O)N[C@H](C(=O)N1CCC[C@H]1C(=O)N1CCN(c2nsc3ccccc23)CC1)C(C)C (X5-GFGVP-X1) under 40 µM?
a: y

q: Quick check: IC50 of CC(C)[C@H](NC(=O)CNC(=O)[C@H](Cc1ccccc1)NC(=O)CNC(=S)Nc1ccc(F)cc1)C(=O)N1CCC[C@H]1C(=O)N1CCN(c2nsc3ccccc23)CC1 (X2-GFGVP-X1) under 40 µM?
a: y

* * *

- Tested on: Aspergillus flavus
- method notes: Antifungal activity against Aspergillus flavus at 50 ug/mL incubated for 3 days by agar well diffusion method
- Type: functional
- condition: 72 h, read-out: IZ
Starred links: 1 amine or outer side, 2 acyl side, 3 side chain; linkers in the order of their positions; H or OH if unused. Residues, ends and D or L forms follow the SMILES beside them. *: point of attachment. Thiocarbamoyl(4-MeOPh) = COc1ccc(NC(=S)*)cc1; Thiocarbamoyl(N-2-FPh) = Fc1ccccc1NC(=S)*; X1 = c1ccc2c(N3CCN(*)CC3)nsc2c1; NH(4-F-phenyl) = Fc1ccc(N*)cc1; X5 = COc1ccccc1NC(=S)*; CO = O=C([*:1])[*:2]
readout label: zone of inhibition at 50 µg/mL (mm)
Kindly answer with a numeric value in mm, unit omitted.

Some compounds with recorded zone of inhibition at 50 µg/mL:
[
  {
    "compound": "COc1ccc(NC(=S)NCC(=O)N[C@H](C(=O)NCC(=O)N[C@H](C(=O)N2CCC[C@H]2C(=O)N2CCN(c3nsc4ccccc34)CC2)C(C)C)C(C)C)cc1 ({Thiocarbamoyl(4-MeOPh)}-GVGVP-X1)",
    "study system": "Aspergillus flavus",
    "readout label": "zone of inhibition at 50 µg/mL",
    "unit": "mm",
    "value observed": 25
  },
  {
    "compound": "COc1ccc(NC(=S)NCC(=O)N[C@@H](Cc2ccccc2)C(=O)NCC(=O)N[C@H](C(=O)N2CCC[C@H]2C(=O)N2CCN(c3nsc4ccccc34)CC2)C(C)C)cc1 ({Thiocarbamoyl(4-MeOPh)}-GFGVP-X1)",
    "study system": "Aspergillus flavus",
    "readout label": "zone of inhibition at 50 µg/mL",
    "unit": "mm",
    "value observed": 29
  },
  {
    "compound": "COc1ccccc1NC(=S)NCC(=O)N[C@@H](Cc1ccccc1)C(=O)NCC(=O)N[C@H](C(=O)N1CCC[C@H]1C(=O)N1CCN(c2nsc3ccccc23)CC1)C(C)C (X5-GFGVP-X1)",
    "study system": "Aspergillus flavus",
    "readout label": "zone of inhibition at 50 µg/mL",
    "unit": "mm",
    "value observed": 25
  },
  {
    "compound": "CC(C)[C@H](NC(=O)CNC(=O)[C@H](Cc1ccccc1)NC(=O)CNC(=S)Nc1ccccc1F)C(=O)N1CCC[C@H]1C(=O)N1CCN(c2nsc3ccccc23)CC1 ({Thiocarbamoyl(N-2-FPh)}-GFGVP-X1)",
    "study system": "Aspergillus flavus",
    "readout label": "zone of inhibition at 50 µg/mL",
    "unit": "mm",
    "value observed": 30
  }
]

Attention now turns to another entry.
Reported zone of inhibition at 50 µg/mL (Aspergillus flavus) for entry CC(C)[C@H](NC(=O)CNC(=O)Nc1ccc(F)cc1)C(=O)NCC(=O)N[C@H](C(=O)N1CCC[C@H]1C(=O)N1CCN(c2nsc3ccccc23)CC1)C(C)C ({NH(4-F-phenyl)-CO}-GVGVP-X1) is 32
